# credit: patent US10246453B2

# Tested Target: NaV1.6 (Homo sapiens (Human), UniProt Q9UQD0)
# Procedure Summary: Sodium Influx Assay (Flux), NaV1.6
# Condition Context: read-out: Flux NaV1.6 IC50; Trex HEK293 cells, ANG2 dye; arithmetic mean
# Sequence (Q9UQD0 whole entry, looked up): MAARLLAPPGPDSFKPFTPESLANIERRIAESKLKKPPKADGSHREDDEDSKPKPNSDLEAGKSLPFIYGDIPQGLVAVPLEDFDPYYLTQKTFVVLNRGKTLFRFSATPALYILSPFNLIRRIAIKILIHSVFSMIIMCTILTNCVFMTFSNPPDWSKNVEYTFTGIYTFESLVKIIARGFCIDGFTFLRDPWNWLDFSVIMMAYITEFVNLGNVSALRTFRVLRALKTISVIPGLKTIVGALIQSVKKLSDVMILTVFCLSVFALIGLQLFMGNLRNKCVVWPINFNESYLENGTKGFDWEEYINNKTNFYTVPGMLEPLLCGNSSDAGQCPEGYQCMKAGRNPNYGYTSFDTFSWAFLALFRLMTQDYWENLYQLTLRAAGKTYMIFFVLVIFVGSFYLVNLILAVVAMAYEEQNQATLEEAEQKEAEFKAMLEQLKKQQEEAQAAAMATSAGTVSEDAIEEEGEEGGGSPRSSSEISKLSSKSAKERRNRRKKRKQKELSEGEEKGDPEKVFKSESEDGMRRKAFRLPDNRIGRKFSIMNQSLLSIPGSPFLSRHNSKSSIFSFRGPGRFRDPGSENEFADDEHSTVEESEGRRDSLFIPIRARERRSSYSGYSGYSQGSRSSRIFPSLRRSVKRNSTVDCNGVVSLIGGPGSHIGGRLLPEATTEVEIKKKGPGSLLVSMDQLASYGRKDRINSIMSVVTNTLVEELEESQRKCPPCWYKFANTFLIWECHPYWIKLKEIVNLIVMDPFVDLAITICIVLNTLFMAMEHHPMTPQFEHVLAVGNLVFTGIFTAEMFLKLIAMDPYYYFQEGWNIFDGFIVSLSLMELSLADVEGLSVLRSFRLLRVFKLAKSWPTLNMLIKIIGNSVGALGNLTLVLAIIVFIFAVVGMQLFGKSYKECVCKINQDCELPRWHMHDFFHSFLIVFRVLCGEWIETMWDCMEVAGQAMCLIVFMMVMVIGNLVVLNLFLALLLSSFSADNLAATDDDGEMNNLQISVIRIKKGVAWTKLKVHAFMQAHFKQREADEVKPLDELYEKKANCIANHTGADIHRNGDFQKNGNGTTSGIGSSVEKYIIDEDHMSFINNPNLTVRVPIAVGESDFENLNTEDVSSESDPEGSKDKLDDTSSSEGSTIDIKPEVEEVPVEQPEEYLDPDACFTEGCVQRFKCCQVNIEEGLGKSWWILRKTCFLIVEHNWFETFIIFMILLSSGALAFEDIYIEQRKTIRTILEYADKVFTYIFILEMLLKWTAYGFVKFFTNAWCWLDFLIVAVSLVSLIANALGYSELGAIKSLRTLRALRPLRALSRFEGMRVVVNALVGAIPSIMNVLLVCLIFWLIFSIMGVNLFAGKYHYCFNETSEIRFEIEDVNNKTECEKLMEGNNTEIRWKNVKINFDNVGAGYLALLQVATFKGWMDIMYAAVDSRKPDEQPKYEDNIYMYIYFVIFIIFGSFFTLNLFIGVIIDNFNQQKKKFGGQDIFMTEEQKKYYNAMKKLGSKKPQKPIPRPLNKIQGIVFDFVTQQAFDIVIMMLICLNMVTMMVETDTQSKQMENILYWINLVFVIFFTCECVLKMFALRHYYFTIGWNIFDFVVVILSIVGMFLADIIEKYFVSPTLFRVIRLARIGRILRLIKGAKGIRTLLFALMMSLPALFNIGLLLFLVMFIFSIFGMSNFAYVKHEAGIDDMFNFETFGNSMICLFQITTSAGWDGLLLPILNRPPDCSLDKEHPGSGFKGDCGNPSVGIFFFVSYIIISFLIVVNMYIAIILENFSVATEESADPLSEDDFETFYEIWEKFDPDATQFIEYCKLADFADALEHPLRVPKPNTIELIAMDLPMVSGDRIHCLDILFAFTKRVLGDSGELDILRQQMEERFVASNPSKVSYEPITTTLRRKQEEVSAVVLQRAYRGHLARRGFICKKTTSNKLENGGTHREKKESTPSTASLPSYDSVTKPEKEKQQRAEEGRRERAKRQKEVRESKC
# Sequence (Q07699 whole entry partner, looked up): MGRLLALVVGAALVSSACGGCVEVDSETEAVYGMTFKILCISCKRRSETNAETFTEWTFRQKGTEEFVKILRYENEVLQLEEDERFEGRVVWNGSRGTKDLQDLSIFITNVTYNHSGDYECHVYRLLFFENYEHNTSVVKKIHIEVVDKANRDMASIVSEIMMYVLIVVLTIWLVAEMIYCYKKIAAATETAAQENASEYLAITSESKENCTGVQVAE
Counter-ions that a name gives are not always drawn.
# pIC50 annotations
// field semantics: pIC50 = negative decimal log of concentration (mol/L)

Solved entries (count: 8):
Molecule	pIC50
CN(c1cc(F)c(S(=O)(=O)Nc2cscn2)cc1Cl)[C@H]1CCN(C2Cc3ccccc3C2)C1 [Example 166, formate]	5.44
O=S(=O)(Nc1nccs1)c1ccc(OC2CCN(C3CCc4ccccc43)CC2)c(Cl)c1 (stereo not shown) [Example 49, 2,2,2-trifluoroacetate]	6.31
O=S(=O)(Nc1nccs1)c1ccc(N[C@@H]2CCN(Cc3ccccc3)C2)c(Cl)c1	6.24
Cc1c(N(C)[C@H]2CCN(Cc3cc(F)ccc3F)C2)cc(F)c(S(=O)(=O)Nc2cscn2)c1F [Example 240, 2,2,2-trifluoroacetate]	7.03
CN(c1cc(F)c(S(=O)(=O)Nc2cscn2)cc1Cl)[C@H]1CCN(Cc2cccc(C(F)(F)F)n2)C1	6.00
CN(C)c1ccc(CN2CC[C@H](N(C)c3cc(F)c(S(=O)(=O)Nc4cscn4)cc3Cl)C2)cc1	5.07
CN(c1cc(F)c(S(=O)(=O)Nc2cccc(F)n2)cc1Cl)[C@H]1CCN(Cc2ccccc2)C1 [Example 40, bis(trifluoroacetic acid) salt]	5.49
Cc1cc(S(=O)(=O)Nc2cscn2)c(F)cc1N(C)[C@H]1CCN(Cc2csc(-c3ccccc3)n2)C1	6.19

stdin: Provide only the value of recorded pIC50 for O=S(=O)(Nc1cccc(F)n1)c1cc(Cl)c(OC2CCN(Cc3ccccc3)CC2)cc1F [Example 78, 2,2,2-trifluoroacetate]
stdout: 5.18

---

# Tested Target: NaV1.6 (Homo sapiens (Human), UniProt Q9UQD0)
# Procedure Summary: Electrophysiological Assay (EP), patch voltage clamp, NaV1.6
# Type: cell-based
# Condition Context: HEK-293 cells, whole-cell patch clamp, inactivated state; arithmetic mean
# Sequence (Q9UQD0 whole entry): as the sequence (Q9UQD0 whole entry, looked up) above
Counter-ions that a name gives are not always drawn.
# IC50 listing for each entry below

Take a look at these entries with their results.
Compound	IC50
Cc1c(O[C@@]2(C)CCN(Cc3ccccc3)C2)cc(F)c(S(=O)(=O)Nc2cscn2)c1F [Example 158, formate]	8 nM
Cc1c(OC2CCN([C@H](C)c3ccccc3)CC2)cc(F)c(S(=O)(=O)Nc2cscn2)c1F [Example 282, 2,2,2-trifluoroacetate]	5 nM
C[C@H](c1ccccc1)N1CCC(Oc2cc(F)c(S(=O)(=O)Nc3cscn3)cc2Cl)CC1 [Example 222, 2,2,2-trifluoroacetate]	278 nM
COc1ccccc1CN1CC[C@H](N(C)c2cc(F)c(S(=O)(=O)Nc3cscn3)cc2Cl)C1 [Example 206]	462 nM
O=S(=O)(Nc1nccs1)c1ccc(N[C@@H]2CCN(Cc3ccccc3)C2)c(Cl)c1 [Example 79]	138 nM
CC1(Nc2ccc(S(=O)(=O)Nc3nccs3)cc2Cl)CN(Cc2ccccc2)C1 [Example 25, 2,2,2-trifluoroacetate]	138 nM

stdin: For the compound O=S(=O)(Nc1nccs1)c1cc(Cl)c(OC2CCN(Cc3ccccc3)CC2)cc1F [Example 47, 2,2,2-trifluoroacetate] , give its measured IC50 value.
stdout: 479 nM

stdin: Indicate the recorded IC50 value for this compound: C[C@H](c1ccccc1)N1CCC(Oc2cc(F)c(S(=O)(=O)Nc3cscn3)c(F)c2Cl)CC1 [Example 283, 2,2,2-trifluoroacetate formate]
stdout: 37 nM

stdin: Give recorded IC50. O=S(=O)(Nc1ncns1)c1ccc(NC2CCN(Cc3ccccc3)C2)c(Cl)c1 (centres unmarked) [Example 26, trifluoroacetate]
stdout: 164 nM

stdin: Provide measured IC50 value, entry: O=S(=O)(Nc1ncns1)c1ccc(OC2CCN(Cc3ccccc3)CC2)c(Cl)c1 [Example 100, 2,2,2-trifluoroacetate]
stdout: 164 nM

stdin: Give IC50 for the following compound: CN(c1cc(F)c(S(=O)(=O)Nc2cccc(F)n2)cc1Cl)[C@H]1CCN(Cc2ccccc2)C1 [Example 40, bis(trifluoroacetic acid) salt]
stdout: 3880 nM

stdin: Please list IC50 recorded for the compound Cc1c(OC2CCN(Cc3ccccc3)CC2)cc(F)c(S(=O)(=O)Nc2cscn2)c1F [Example 106, formate]
stdout: 34 nM

stdin: Specify measured IC50 for C[C@@H](c1ccccc1)N1CCC(Oc2ccc(S(=O)(=O)Nc3nccs3)cc2Cl)CC1 [Example 58, 2,2,2-trifluoroacetate] .
stdout: 93 nM

stdin: Annotate the compound CCN(c1cc(F)c(S(=O)(=O)Nc2cscn2)cc1Cl)[C@H]1CCN(Cc2ccccc2)C1 [Example 263] with its measured IC50.
stdout: 3810 nM
